# target: human α4β7 integrin on cells (human) (UniProt P13612)
# experiment: RPMI8866 adhesion to MAdCAM-1
Bridge positions count the residues as written; N and C are the ends. Square brackets hold non-standard residues; d marks the D form. 1Nal = N[C@@H](Cc1cccc2ccccc12)C(=O)O; 2Nal = N[C@@H](Cc1ccc2ccccc2c1)C(=O)O; NMeR = CN[C@@H](CCCNC(=N)N)C(=O)O; Tic = O=C(O)[C@@H]1Cc2ccccc2CN1; β3hE = N[C@@H](CCC(=O)O)CC(=O)O; Pen = CC(C)(S)[C@H](N)C(=O)O; Dab = NCC[C@H](N)C(=O)O
measuredQuantity: IC50

// returns reported IC50 for input Ac-[Pen][NMeR]SDTL[Pen][Tic][β3hE]-NH2 (disulfide 1-7 (inferred)) [SEQ ID NO: 154]
> 100 nM

For the binder Ac-[Pen][NMeR]SDVL[Pen][2Nal][dE]-NH2 (disulfide 1-7 (inferred)) [SEQ ID NO: 156] , what IC50 is on record?
> 100 nM

What does the data say about its IC50? Entry: Ac-[Pen][NMeR]SDTL[Pen][1Nal][dL][dK]-NH2 (disulfide 1-7 (inferred); also: homodimer via DIG) [SEQ ID NO: 113]
> 500 nM

Recorded IC50 of Ac-[Pen][NMeR]SDTL[Pen]W[dE][Dab]-NH2 (disulfide 1-7; SMILES CC(=O)N[C@@H]1C(=O)N(C)[C@@H](CCCNC(=N)N)C(=O)N[C@@H](CO)C(=O)N[C@@H](CC(=O)O)C(=O)N[C@@H]([C@@H](C)O)C(=O)N[C@@H](CC(C)C)C(=O)N[C@H](C(=O)N[C@@H](Cc2c[nH]c3ccccc23)C(=O)N[C@H](CCC(=O)O)C(=O)N[C@@H](CCN)C(N)=O)C(C)(C)SSC1(C)C) [SEQ ID NO: 56] , please.
> 500 nM

Data credit: patent US20180148477A1
